Cited source for all entries: patent US7468391B2

- test_system: RAR β (Homo sapiens, UniProt P10826)
- Sequence (P10826 whole entry): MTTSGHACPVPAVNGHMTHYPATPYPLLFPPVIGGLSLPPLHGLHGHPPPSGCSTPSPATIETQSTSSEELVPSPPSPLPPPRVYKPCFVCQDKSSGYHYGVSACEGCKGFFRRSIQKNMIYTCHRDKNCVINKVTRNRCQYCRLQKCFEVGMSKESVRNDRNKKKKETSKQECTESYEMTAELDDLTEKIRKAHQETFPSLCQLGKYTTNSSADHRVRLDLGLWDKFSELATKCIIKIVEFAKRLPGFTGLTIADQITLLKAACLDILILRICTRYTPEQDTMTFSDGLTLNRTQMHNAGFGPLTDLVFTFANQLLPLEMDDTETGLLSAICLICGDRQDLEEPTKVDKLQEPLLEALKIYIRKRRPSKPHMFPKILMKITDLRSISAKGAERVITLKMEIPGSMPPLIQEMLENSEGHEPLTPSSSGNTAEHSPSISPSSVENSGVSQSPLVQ
- assay_text: RAR β EC50/(efficacy)
- Type: cell-based
- experimental_setup: value in brackets of cell EC50/(EFFICACY)/Kd
// values below are reported RAR β (EFFICACY)
Enter the number alone.

Record excerpt, results attached:
>>> print(df.to_string())
                                   molecule  reported_property  reported
0  C/C(=C\c1ccc(C#Cc2cccc(CN(C)C3CC3)c2)cc1)C(=O)O [Compound 33]   RAR β (EFFICACY)        30
1  C=Cc1cc(C#Cc2ccc(CC(=O)O)cc2)cc2c1C(=O)CCC2(C)C [Compound 22]   RAR β (EFFICACY)        15
2  CN(Cc1cccc(C#Cc2ccc(/C=C/C(=O)O)cc2)c1)C1CC1 [Compound 31]   RAR β (EFFICACY)        25
3  C/C(=C\c1ccc(C#Cc2cc(C3CC3)c3c(c2)C(C)(C)CC2(CC2)O3)cc1)C(=O)O [Compound 3]   RAR β (EFFICACY)        15

### Prompt Entry C#CCc1c(C)c(C#Cc2ccc(CC(=O)O)cc2)cc(C(C)(C)C)c1OC(C)C [Compound 47] has what RAR β (EFFICACY)?
### Response 59

### Prompt Entry COc1cc(C#Cc2ccc(CC(=O)O)c(F)c2)cc2c1C(N(C)C1CC1)CCC2(C)C (centres unmarked) [Compound 26] has what RAR β (EFFICACY)?
### Response 25

### Prompt Entry C#Cc1cc(NC(=O)Nc2ccc(C(=O)O)c(F)c2)cc2c1OC(C)(C)CC2(C)C [Compound 63] has what RAR β (EFFICACY)?
### Response 37

### Prompt Entry CCOC(=O)C1=C(C)CC(C)(C)c2cc(C#Cc3ccc(CC(=O)O)cc3)ccc21 [Compound 58] has what RAR β (EFFICACY)?
### Response 25

###

- test_system: RAR α (Homo sapiens)
- assay_text: RAR α Kd
- Assay type: binding
- experimental_setup: last item of cell EC50/(EFFICACY)/Kd
pKd: −log10 of the molar value.
// values below are reported pKd

### Prompt Which pKd is reported with RAR α (Homo sapiens) for this entry: CC1(C)CC2(CC2)Oc2c(C3CC3)cc(NC(=O)Nc3ccc(C(=O)O)cc3)cc21 ?
### Response < 5.00

### Prompt Which pKd is reported with RAR α (Homo sapiens) for this entry: CC(C)OC(=O)c1ccc(C#Cc2ccc(CC(=O)O)c(F)c2)cc1CN(C)C1CC1 ?
### Response < 5.00

### Prompt Which pKd is reported with RAR α (Homo sapiens) for this entry: C#Cc1cc(C#Cc2ccc(CC(=O)O)c(F)c2)cc(C(=O)OC(C)C)c1 ?
### Response < 5.00

### Prompt Which pKd is reported with RAR α (Homo sapiens) for this entry: Cc1ccc(CN(C)C2CC2)cc1C#Cc1ccc(/C=C/C(=O)O)cc1 ?
### Response 5.25

###

- test_system: RAR α (Homo sapiens)
- Sequence (P10276 1-462): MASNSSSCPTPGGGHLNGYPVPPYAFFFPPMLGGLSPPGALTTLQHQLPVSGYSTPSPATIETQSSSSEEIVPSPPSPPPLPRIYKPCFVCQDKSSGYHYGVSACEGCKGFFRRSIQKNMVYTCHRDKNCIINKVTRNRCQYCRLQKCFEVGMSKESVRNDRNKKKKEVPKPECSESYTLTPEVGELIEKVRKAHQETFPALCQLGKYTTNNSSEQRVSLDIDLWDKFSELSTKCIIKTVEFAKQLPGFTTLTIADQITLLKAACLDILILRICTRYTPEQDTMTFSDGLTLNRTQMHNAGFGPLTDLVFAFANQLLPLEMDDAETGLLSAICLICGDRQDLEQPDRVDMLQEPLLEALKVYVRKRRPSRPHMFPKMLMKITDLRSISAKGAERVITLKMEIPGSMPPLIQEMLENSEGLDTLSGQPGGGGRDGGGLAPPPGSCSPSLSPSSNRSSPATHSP
- assay_text: RAR α Kd
- Type: binding
- experimental_setup: last item of cell EC50/(EFFICACY)/Kd
reported_property: Kd

>>> print(df.to_string())
                                   compound  reported_property  reported
0  CCOC(=O)C1=CCC(C)(C)c2cc(C#Cc3ccc(CC(=O)O)c(F)c3)c(C)cc21                 Kd   > 10 µM
1  COc1cc(C#CC2=CCC(/C=C(\C)C(=O)O)C=C2)cc2c1C(N(C)C1CC1)CCC2(C)C (stereo not shown)                 Kd   > 10 µM
2  C#Cc1cc(C#Cc2ccc(CC(=O)OCOC(C)=O)c(F)c2)cc(C(=O)OC(C)C)c1                 Kd   > 10 µM
3  CC(C(=O)O)c1ccc(C#Cc2cc(C3CC3)c3c(c2)C(C)(C)CC2(CC2)O3)cc1 (stereo not shown)                 Kd   2.09 µM

### Prompt Entry CC(C)OC(=O)c1ccc(C#Cc2ccc(CC(=O)O)cc2)cc1CN(C)C1CC1 has what Kd?
### Response > 10 µM

### Prompt Entry C/C(=C\c1ccc(C#Cc2cc(C3CC3)c3c(c2)C(C)(C)CC2(CC2)O3)cc1)C(=O)O has what Kd?
### Response > 10 µM

### Prompt Entry CN(c1cccc(C#Cc2ccc(/C=C/C(=O)O)cc2)c1)C1CC1 has what Kd?
### Response > 10 µM

### Prompt Entry CCOC(=O)C1=C(C)CC(C)(C)c2cc(C#Cc3ccc(CC(=O)O)c(F)c3)ccc21 has what Kd?
### Response > 10 µM

### Prompt Entry Cc1cc2c(cc1C#Cc1ccc(C(C)(C)C(=O)O)cc1)C(C)(C)CCC2N(C)C1CC1 (stereo not shown) has what Kd?
### Response > 10 µM

### Prompt Entry CC(C(=O)O)c1ccc(C#Cc2cc(CN(C)C3CC3)c3c(c2)C(C)(C)CC(C)(C)O3)cc1 (stereo not shown) has what Kd?
### Response 0.957 µM

### Prompt Entry CC(C)Oc1cc(C#Cc2ccc(CC(=O)O)cc2)cc2c1C(N(C)C1CC1)CCC2(C)C (stereo not shown) has what Kd?
### Response > 10 µM

### Prompt Entry C#Cc1c(C)c(C#Cc2ccc(CC(=O)O)cc2)cc(C(C)(C)C)c1OC(C)C has what Kd?
### Response 0.0099 µM

### Prompt Entry C=Cc1cc(C#Cc2ccc(CC(=O)O)cc2)cc2c1C(N(C)C1CC1)CCC2(C)C (stereo not shown) has what Kd?
### Response > 10 µM

### Prompt Entry COc1cc(C#Cc2ccc(/C=C/C(=O)O)cc2)cc2c1C(N(C)C1CC1)CCC2(C)C (stereo not shown) has what Kd?
### Response > 10 µM

### Prompt Entry CC(C)c1cc(C#Cc2cccc(/C=C/C(=O)O)c2)cc2c1OC(C)(C)CC2(C)C has what Kd?
### Response 8.9 µM

### Prompt Entry CN(C1CC1)C1CCC(C)(C)c2cc(NC(=O)Nc3ccc(C(=O)O)cc3)ccc21 (stereo not shown) has what Kd?
### Response > 10 µM
